- method-summary: chemical genetic growth profiling, strain panel (AID 1159580);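 further: tested at 20 µM; growth read once vehicle control cultures reached saturation at 30 °C; 1 = growth at the plate median or of vehicle wells; lower values mean less growth of the strain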
- condition: S. cerevisiae deletion strains, growth OD, locus YLR268W, strain sec22, stronger effect = lower value
Among all 5,500 compounds or so, about 2,000 (36%) were called active. Roughly 18% stayed inconclusive and do not appear here. This is one part of the list.
Quick reference for normalized growth among some compounds

compound: COc1ccc2c(c1)OC/C(=C\c1ccc(OC)c(O)c1)C2=O
normalized growth: 0.709
//
compound: C[C@@H]1CC(Cl)CC[C@H]1C(=O)OC(C)(C)C (stereo partly drawn)
normalized growth: 0.976
//
compound: COC(=O)C[C@H]1C2(C)CC34OC5(C)O[C@@]6([C@H](OC)C(OC(=O)C(C)C)[C@]7(C)C(/C(=C(/OC)C(C)C)C(=O)O[C@H]7c7ccoc7)[C@@]6(O5)[C@H](OC)[C@@]3(OC)C2OC(C)=O)[C@]14C (stereo partly drawn)
normalized growth: 1.03

* * *

- method-summary: chemical genetic growth profiling, strain panel (AID 1159580);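 further: tested at 20 µM; growth read once vehicle control cultures reached saturation at 30 °C; 1 = growth at the plate median or of vehicle wells; lower values mean less growth of the strain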
- condition: S. cerevisiae deletion strains, growth OD, locus YGL253W, strain hxk2, stronger effect = lower value
Hit rate of the full screen: of about 5,500 compounds, about 2,000 (36%) were called active. About 18% were inconclusive and are not listed. The list shows a part of the results.
Quick reference for normalized growth among some compounds

compound: CC[C@@H](C(=O)C(C)[C@@H](O)[C@H](C)CCc1ccc(C)c(O)c1C(=O)O)C1OC(CC)(C2CC[C@](O)(CC)[C@H](C)O2)C[C@@H]1C (some centres undefined)
normalized growth: 1.06
--
compound: Cc1ccccc1C(OCCN(C)C)c1ccccc1 (centres undefined)
normalized growth: 1.01
--
compound: COc1ccc(OC)c(C(O)CNC(=O)CN)c1 (centres undefined)
normalized growth: 1.02
--
compound: O=S(=O)(O)CCS
normalized growth: 0.986
--
compound: CC1(C)S[C@@H]2[C@H](NC(=O)[C@H](N)c3ccccc3)C(=O)N2[C@H]1C(=O)O
normalized growth: 0.944
--
compound: C[n+]1c2cc(N)ccc2cc2ccc(N)cc21
normalized growth: 0.425
--
compound: O=C(/C=C/c1ccc(O)c(O)c1)OC(Cc1ccc(O)c(O)c1)C(=O)O (centres undefined)
normalized growth: 1.05
--
compound: O=C(NC(=O)c1ccccc1Cl)Nc1ccc(OC(F)(F)F)cc1
normalized growth: 1.03
--
compound: Cc1ccc(S(=O)(=O)NC(=O)NN2CCCCCC2)cc1
normalized growth: 1.02

* * *

- method-summary: chemical genetic growth profiling, strain panel (AID 1159580);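 further: tested at 20 µM; growth read once vehicle control cultures reached saturation at 30 °C; 1 = growth at the plate median or of vehicle wells; lower values mean less growth of the strain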
- condition: S. cerevisiae deletion strains, growth OD, locus YFR010W, strain ubp6, stronger effect = lower value
In all, about 5,500 compounds went through this assay and about 2,000 (36%) were called active. About 18% were inconclusive and are not listed. The list shows a part of the results.

compound: CN(C)CCN(Cc1ccccc1)c1ccccn1
normalized growth: 1.03

compound: Oc1cc(O)c2c(c1)O[C@H](c1ccc(O)c(O)c1)[C@H](O)C2
normalized growth: 1.01

compound: COc1ccc([C@H]2Oc3c(I)c(OC)cc(OC)c3C[C@@H]2O)cc1OC
normalized growth: 1.01

compound: Oc1ccc2c(c1)O[C@H](c1ccc(O)c(O)c1)[C@@H](O)C2
normalized growth: 1.02

compound: CC(=O)S[C@@H]1CC2=CC(=O)CC[C@]2(C)[C@H]2CC[C@@]3(C)[C@@H](CC[C@@]34CCC(=O)O4)C12 (stereo partly specified)
normalized growth: 1.02

compound: C=C[C@@](C)(O)CCC1C(=C)C[C@H](OC(C)=O)C2C(C)(C)CCCC12C (stereo partly specified)
normalized growth: 1.05

compound: Nc1nc(=S)c2[nH]cnc2[nH]1
normalized growth: 1

compound: CC(=O)O[C@H]1C[C@@H](OC(C)=O)C(C)(C)C2CC(=O)[C@]3(C)C(CC[C@@]4(C)[C@H](C(=O)O)OC(=O)C5OC543)[C@]21C (stereo partly specified)
normalized growth: 1.02

compound: CC1COc2c(N3CCN(C)CC3)c(F)cc3c(=O)c(C(=O)O)cn1c23 (stereo unspecified)
normalized growth: 0.978

compound: CN(C)CCN(Cc1cccs1)c1ccccn1
normalized growth: 1.01

compound: Cc1ccc(S(=O)(=O)NC(=O)NN2CCCCCC2)cc1
normalized growth: 1.02
